- experiment: The drug is tested on Bacteroides xylanisolvens strain: DSM18836 for biotransformation. The drug concentrations were measured before and after a 12-h incubation by liquid-chromatography-coupled mass spectrometry (LC–MS)
- settings: 2 µM
outcomeMeasure: Bacterial Biotransformation

Example cases with answers are listed next.
Given the molecule COc1c(C)c2c(c(O)c1C/C=C(\C)CCC(=O)OCCN1CCOCC1)C(=O)OC2 [MYCOPHENOLATE MOFETIL] , what is its reported Bacterial Biotransformation?
Compound metabolized

Given the molecule C=CC[C@@H]1/C=C(\C)C[C@H](C)C[C@H](OC)[C@H]2O[C@@](O)(C(=O)C(=O)N3CCCC[C@H]3C(=O)O[C@H](/C(C)=C/[C@@H]3CC[C@@H](O)[C@H](OC)C3)[C@H](C)[C@@H](O)CC1=O)[C@H](C)C[C@@H]2OC.O [TACROLIMUS] , what is its reported Bacterial Biotransformation?
Compound metabolized

Given the molecule CCN(CC)CCCC(C)Nc1c2ccc(Cl)cc2nc2ccc(OC)cc12 (stereo unspecified) [QUINACRINE] , what is its reported Bacterial Biotransformation?
Compound NOT metabolized

Given the molecule CC(C)c1nc(N(C)S(C)(=O)=O)nc(-c2ccc(F)cc2)c1/C=C/[C@@H](O)C[C@@H](O)CC(=O)[O-].CC(C)c1nc(N(C)S(C)(=O)=O)nc(-c2ccc(F)cc2)c1/C=C/[C@@H](O)C[C@@H](O)CC(=O)[O-].[Ca+2] [ROSUVASTATIN CALCIUM] , what is its reported Bacterial Biotransformation?
Compound NOT metabolized

Given the molecule CC(C(=O)O)c1ccc2c(c1)Cc1cccnc1O2 (stereo unspecified) [PRANOPROFEN] , what is its reported Bacterial Biotransformation?
Compound metabolized

Next up:
Given the molecule Nc1ccc(/N=N/c2ccccc2)c(N)n1 [PHENAZOPYRIDINE] , what is its reported Bacterial Biotransformation?
Compound metabolized

====

- experiment: The drug is tested on Eubacterium hallii strain: DSM3353 for biotransformation. The drug concentrations were measured before and after a 12-h incubation by liquid-chromatography-coupled mass spectrometry (LC–MS)
- settings: anaerobutyricum hallii, 2 µM
outcomeMeasure: Bacterial Biotransformation

Given the compound "COc1c2occc2cc2ccc(=O)oc12" , what is its reported Bacterial Biotransformation?
Compound metabolized

Given the compound COc1cc(NC(C)CCCN)c2ncccc2c1.O=P(O)(O)O.O=P(O)(O)O (configuration not stated) [PRIMAQUINE PHOSPHATE] , what is its reported Bacterial Biotransformation?
Compound NOT metabolized

Given the compound CC(=O)CC(c1ccccc1)c1c(O)c2ccccc2oc1=O (configuration not stated) , what is its reported Bacterial Biotransformation?
Compound NOT metabolized

Given the compound CC(C)(C)NC(=O)[C@H]1CC[C@H]2[C@@H]3CC[C@H]4NC(=O)C=C[C@]4(C)[C@H]3CC[C@]12C [FINASTERIDE] , what is its reported Bacterial Biotransformation?
Compound NOT metabolized

Next:
Given the compound "C=CC[C@@H]1/C=C(\C)C[C@H](C)C[C@H](OC)[C@H]2O[C@@](O)(C(=O)C(=O)N3CCCC[C@H]3C(=O)O[C@H](/C(C)=C/[C@@H]3CC[C@@H](O)[C@H](OC)C3)[C@H](C)[C@@H](O)CC1=O)[C@H](C)C[C@@H]2OC.O" , what is its reported Bacterial Biotransformation?
Compound metabolized

Given the compound CC(C)(C)NCC(O)COc1cccc2c1CC(O)C(O)C2 (configuration not stated) , what is its reported Bacterial Biotransformation?
Compound NOT metabolized

Given the compound Cc1ccc(S(=O)(=O)NC(=O)NN2CC3CCCC3C2)cc1 (configuration not stated) [GLICLAZIDE] , what is its reported Bacterial Biotransformation?
Compound NOT metabolized

Data credit: ChEMBL document CHEMBL5303573
